These data points were gathered from patent EP0908457B1.

Tested on: Oryza sativa, (L.) Tebonnet
ASSAY: Rice tolerance to post-transplant applications under flooded paddy conditions (Example 187), ORYSAT (Rice, Tebonnet); further: meaning of each grade not given here
EXPERIMENTAL_CONDITIONS: Rate 0.0620 kg/ha, rated three to four weeks after treatment
MEASUREMENT_NAME: herbicidal effect rating ORYSAT
Form field (numeric): enter value without unit.

Query: Form field: reported herbicidal effect rating ORYSAT of Cn1c(C(F)(F)F)cc(=O)n(-c2ccc3snc(C(C#N)=Cc4ccco4)c3c2)c1=O [Example 594]
Response: 2.0

Query: // herbicidal effect rating ORYSAT lookup, key: Cn1c(C(F)(F)F)cc(=O)n(-c2ccc3snc(C(=O)CCl)c3c2)c1=O [Example 338]
Response: 0.0

Query: Fill in the blank: the reported herbicidal effect rating ORYSAT of Cn1c(C(F)(F)F)cc(=O)n(-c2ccc3snc(C(=O)NS(=O)(=O)c4ccc5ccccc5c4)c3c2)c1=O [Example 357] is ____.
Response: 2.0

Query: So what's the measured herbicidal effect rating ORYSAT for this one? Cn1c(C(F)(F)F)cc(=O)n(-c2ccc3snc(C(=O)O)c3c2)c1=O [Example 315]
Response: 0.0

Query: Find the recorded herbicidal effect rating ORYSAT belonging to CON(C)C(=O)COc1ccccc1-c1nsc2ccc(-n3c(=O)cc(C(F)(F)F)n(C)c3=O)cc12 [Example 354] and report it.
Response: 8.0

Query: If you can, please state the reported herbicidal effect rating ORYSAT value of C#CCOC(=O)COc1cccc(-c2nsc3ccc(-n4c(=O)cc(C(F)(F)F)n(C)c4=O)cc23)c1 [Example 326] .
Response: 5.5

Query: So what does the record say about herbicidal effect rating ORYSAT for Cc1nsc2cc(F)c(-n3c(=O)cc(C(F)(F)F)n(C)c3=O)cc12 [Example 366] ?
Response: 9.0

Query: Fill in: herbicidal effect rating ORYSAT of Cn1c(C(F)(F)F)cc(=O)n(-c2ccc3snc(C(=O)NS(=O)(=O)c4cccs4)c3c2)c1=O [Example 391] is ___
Response: 2.0

Query: Which value of herbicidal effect rating ORYSAT has been reported for CN(O)C(=O)COc1ccccc1-c1nsc2ccc(-n3c(=O)cc(C(F)(F)F)n(C)c3=O)cc12 [Example 336] in the records?
Response: 4.5

Query: So what's the measured herbicidal effect rating ORYSAT for this one? Cn1c(C(F)(F)F)cc(=O)n(-c2ccc3snc(C(C#N)(Cc4ccccc4)Cc4ccccc4)c3c2)c1=O [Example 582]
Response: 0.0

Query: Need herbicidal effect rating ORYSAT, item Cn1c(C(F)(F)F)cc(=O)n(-c2ccc3snc(C(=O)Oc4ccccc4)c3c2)c1=O [Example 319]
Response: 6.0

Query: What value of herbicidal effect rating ORYSAT has been reported for the following compound? CCCCS(=O)(=O)NC(=O)COc1ccc(C)cc1-c1nsc2ccc(-n3c(=O)cc(C(F)(F)F)n(C)c3=O)cc12 [Example 573]
Response: 0.0

Query: I am curious: what herbicidal effect rating ORYSAT value has been reported for CC(Oc1ccccc1-c1nsc2ccc(-n3c(=O)cc(C(F)(F)F)n(C)c3=O)cc12)C(=O)O (stereo not drawn) [Example 314] ?
Response: 3.0

Query: Tell me the measured herbicidal effect rating ORYSAT of Cn1c(C(F)(F)F)cc(=O)n(-c2ccc3snc(C(=O)Nc4cc(C(C)(C)C)on4)c3c2)c1=O [Example 331] , please.
Response: 0.0

Query: I have this compound here, Cn1c(C(F)(F)F)cc(=O)n(-c2ccc3snc(C(=O)NS(=O)(=O)c4ccccc4)c3c2)c1=O [Example 352] , and I need its recorded herbicidal effect rating ORYSAT.
Response: 1.0

Query: Requested read-out: herbicidal effect rating ORYSAT. Entry: Cn1c(C(F)(F)F)cc(=O)n(-c2ccc3snc(COC(=O)Cc4ccccc4)c3c2)c1=O [Example 369]
Response: 6.0

Query: Which value of herbicidal effect rating ORYSAT has been reported for Cn1c(C(F)(F)F)cc(=O)n(-c2ccc3snc(C(C#N)=Cc4ccncc4)c3c2)c1=O [Example 596] in the records?
Response: 3.0

Query: Which herbicidal effect rating ORYSAT is reported for this compound? COc1cc2c(cc1-c1nsc3ccc(-n4c(=O)cc(C(F)(F)F)n(C)c4=O)cc13)CCC2 [Example 380]
Response: 4.0

* * *

Would you kindly list herbicidal effect rating ORYSAT for each of these compounds?
Tested on: Oryza sativa, (L.) Tebonnet
ASSAY: Rice tolerance to post-transplant applications under flooded paddy conditions (Example 187), ORYSAT (Rice, Tebonnet); further: meaning of each grade not given here
EXPERIMENTAL_CONDITIONS: Rate 0.2500 kg/ha, rated three to four weeks after treatment

Query: Sample Cn1c(C(F)(F)F)cc(=O)n(-c2ccc3snc(C(C#N)(Cc4ccccc4)Cc4ccccc4)c3c2)c1=O — what was its herbicidal effect rating ORYSAT?
Response: 3.0

Query: What value of herbicidal effect rating ORYSAT has been reported for the following compound? CC(C#N)c1nsc2ccc(-n3c(=O)cc(C(F)(F)F)n(C)c3=O)cc12 (stereo not drawn)
Response: 9.0

Query: Return reported herbicidal effect rating ORYSAT; argument: COC(C)c1nsc2ccc(-n3c(=O)cc(C(F)(F)F)n(C)c3=O)cc12 (stereo not drawn)
Response: 9.0

Query: What does the data say about its herbicidal effect rating ORYSAT? Entry: CNC.Cn1c(C(F)(F)F)cc(=O)n(-c2ccc3snc(CSCC(=O)O)c3c2)c1=O
Response: 5.0

Query: Would you kindly share the measured herbicidal effect rating ORYSAT for Cn1c(C(F)(F)F)cc(=O)n(-c2ccc3snc(CSCC(=O)NS(C)(=O)=O)c3c2)c1=O ?
Response: 2.0

Query: For the compound Cn1c(C(F)(F)F)cc(=O)n(-c2cc3c(CC#N)nsc3cc2F)c1=O , what herbicidal effect rating ORYSAT is on record?
Response: 9.0

Query: Please report the recorded herbicidal effect rating ORYSAT for Cn1c(C(F)(F)F)cc(=O)n(-c2ccc3snc(C(C#N)=Cc4ccncc4)c3c2)c1=O .
Response: 6.0

Query: Reported herbicidal effect rating ORYSAT, compound CON(C)C(=O)COc1ccccc1-c1nsc2ccc(-n3c(=O)cc(C(F)(F)F)n(C)c3=O)cc12 : ____
Response: 9.0

Query: Which value of herbicidal effect rating ORYSAT has been reported for Cn1c(C(F)(F)F)cc(=O)n(-c2ccc3snc(C(=O)CBr)c3c2)c1=O in the records?
Response: 3.0

Query: Return reported herbicidal effect rating ORYSAT; argument: CC(C)NC(=O)c1nsc2ccc(-n3c(=O)cc(C(F)(F)F)n(C)c3=O)cc12
Response: 7.0

Query: Form field: reported herbicidal effect rating ORYSAT of Cc1ccc(OCC(=O)NO)c(-c2nsc3ccc(-n4c(=O)cc(C(F)(F)F)n(C)c4=O)cc23)c1
Response: 4.0

Query: I am curious: what herbicidal effect rating ORYSAT value has been reported for Cn1c(C(F)(F)F)cc(=O)n(-c2ccc3snc(C(=O)NS(=O)(=O)c4ccccc4)c3c2)c1=O ?
Response: 3.0

Query: Consider the compound CC/C(C=O)=C\c1nsc2ccc(-n3c(=O)cc(C(F)(F)F)n(C)c3=O)cc12 and give its measured herbicidal effect rating ORYSAT.
Response: 2.0

Query: I am curious: what herbicidal effect rating ORYSAT value has been reported for Cc1ccc(OCC(=O)N(C)O)c(-c2nsc3ccc(-n4c(=O)cc(C(F)(F)F)n(C)c4=O)cc23)c1 ?
Response: 5.0

Query: So what does the record say about herbicidal effect rating ORYSAT for COC(=O)C(C)Oc1ccc(OC)cc1-c1nsc2ccc(-n3c(=O)cc(C(F)(F)F)n(C)c3=O)cc12 (stereo not drawn) ?
Response: 5.0

* * *

System: Sagittaria pygmaea, L.
ASSAY: Preemergence weed control under flooded paddy conditions, SAGPY (Arrowhead (Pygmaea))
Type: in vivo
EXPERIMENTAL_CONDITIONS: Rate 0.2500 kg/ha; preemergence, flooded paddy; rated three to four weeks after treatment
MEASUREMENT_NAME: SAGPY herbicidal effect rating
Provide a numeric answer; units are not to be included.

Query: Look up SAGPY herbicidal effect rating: Cc1ccc(OCC(=O)NS(=O)(=O)c2c(C)noc2C)c(-c2nsc3ccc(-n4c(=O)cc(C(F)(F)F)n(C)c4=O)cc23)c1
Response: 0.0

Query: # query: SAGPY herbicidal effect rating of entry C=CCCOCc1nsc2ccc(-n3c(=O)cc(C(F)(F)F)n(C)c3=O)cc12
Response: 9.0

Query: Which SAGPY herbicidal effect rating value belongs to Cn1c(C(F)(F)F)cc(=O)n(-c2ccc3snc(CS(=O)(=O)CC(=O)O)c3c2)c1=O ?
Response: 0.0
